Measured pIC50 of individual entries
test system: SW620; experiment: Cell proliferation assay (Alamar Blue); assay type: cell-based; settings: Homo sapiens, SW-620, 144 h; SW620 tumor cell line; 6 days
pIC50: −log10 of the molar value.
Assay endpoint: pIC50

smiles_string=Cc1ccc(F)c(NC(=O)Nc2ccc(-c3cccc4c3c(N)nn4C(=O)C[C@H](N)C(=O)N[C@@H](CCC(=O)O)C(=O)O)cc2)c1 value_prefix== quantitative_readout=5.55
smiles_string=Cc1ccc(F)c(NC(=O)Nc2ccc(-c3cccc4c3c(N)nn4C(=O)CCCCCCCCCCCNC(=O)C[C@H](N)C(=O)N[C@@H](CCC(=O)O)C(=O)O)cc2)c1 value_prefix== quantitative_readout=4.66
smiles_string=Cc1ccc(F)c(NC(=O)Nc2ccc(-c3cccc4c3c(N)nn4C(=O)CCCCCNC(=O)C[C@H](N)C(=O)N[C@@H](CCC(=O)N[C@@H](CCC(=O)N[C@@H](CCC(=O)N[C@@H](CCC(=O)O)C(=O)O)C(=O)O)C(=O)O)C(=O)O)cc2)c1 value_prefix=< quantitative_readout=4.00

###

# Lookup of reported IC50 keyed by entry
system: SNU387; experiment: Cell proliferation assay (Alamar Blue); assay type: cell-based; conditions: Homo sapiens, SNU-387, 144 h; SNU387 liver cancer cell line; 6 days
Assay endpoint: IC50

compound="Cc1ccc(F)c(NC(=O)Nc2ccc(-c3cccc4c3c(N)nn4C(=O)CCCCCNC(=O)C[C@H](N)C(=O)N[C@@H](CCC(=O)N[C@@H](CCC(=O)N[C@@H](CCC(=O)N[C@@H](CCC(=O)N[C@@H](CCC(=O)N[C@@H](CCC(=O)N[C@@H](CCC(=O)N[C@@H](CCC(=O)N[C@@H](CCC(=O)O)C(=O)O)C(=O)O)C(=O)O)C(=O)O)C(=O)O)C(=O)O)C(=O)O)C(=O)O)C(=O)O)cc2)c1 [Compound 6]" result="> 100 µM"
compound="Cc1ccc(F)c(NC(=O)Nc2ccc(-c3cccc4c3c(N)nn4C(=O)CCCCCCCCCCCNC(=O)C[C@H](N)C(=O)N[C@@H](CCC(=O)N[C@@H](CCC(=O)N[C@@H](CCC(=O)N[C@@H](CCC(=O)N[C@@H](CCC(=O)N[C@@H](CCC(=O)N[C@@H](CCC(=O)N[C@@H](CCC(=O)N[C@@H](CCC(=O)O)C(=O)O)C(=O)O)C(=O)O)C(=O)O)C(=O)O)C(=O)O)C(=O)O)C(=O)O)C(=O)O)cc2)c1 [Compound 9]" result="> 100 µM"
compound="Cc1ccc(F)c(NC(=O)Nc2ccc(-c3cccc4c3c(N)nn4C(=O)CCCCCCCCCCCNC(=O)C[C@H](N)C(=O)O)cc2)c1 [Compound 12]" result="30.3 µM"

###

Some compounds, each annotated with its measured IC50.
Test system: SNU761
Experiment: Cell proliferation assay (Alamar Blue)
Format: cell-based
Conditions: 144 h; SNU761 liver cancer cell line; 6 days
Description: 1. Instruments and Materials • Thermo 311 CO2 incubator; Haier biosafety cabinet; Molecular Devices microplate reader; Xiangyi brand L530 desktop low speed centrifuge; Olympus IX51 inverted fluorescence microscope, DMEM, RPMI 1640, MEM, DMEM/F12 1:1 medium, Fetal bovine serum, 0.25% trypsin solution, phosphate buffer (Thermo Fisher Shanghai Co., Ltd.); sigma dimethyl sulfoxide (DMSO), resazurin; 54 commercial tumor cell lines (including 26 liver cancer cell lines). […]
Assay endpoint: IC50

smiles_string=Cc1ccc(F)c(NC(=O)Nc2ccc(-c3cccc4c3c(N)nn4C(=O)C[C@H](N)C(=O)N[C@@H](CCC(=O)N[C@@H](CCC(=O)N[C@@H](CCC(=O)N[C@@H](CCC(=O)N[C@@H](CCC(=O)N[C@@H](CCC(=O)N[C@@H](CCC(=O)N[C@@H](CCC(=O)N[C@@H](CCC(=O)O)C(=O)O)C(=O)O)C(=O)O)C(=O)O)C(=O)O)C(=O)O)C(=O)O)C(=O)O)C(=O)O)cc2)c1 result="29.1 µM"
smiles_string=Cc1ccc(F)c(NC(=O)Nc2ccc(-c3cccc4c3c(N)nn4C(=O)CCCCCNC(=O)C[C@H](N)C(=O)N[C@@H](CCC(=O)N[C@@H](CCC(=O)N[C@@H](CCC(=O)N[C@@H](CCC(=O)O)C(=O)O)C(=O)O)C(=O)O)C(=O)O)cc2)c1 result="> 100 µM"
smiles_string=Cc1ccc(F)c(NC(=O)Nc2ccc(-c3cccc4c3c(N)nn4C(=O)CCCCCCCCCCCNC(=O)C[C@H](N)C(=O)N[C@@H](CCC(=O)N[C@@H](CCC(=O)N[C@@H](CCC(=O)N[C@@H](CCC(=O)N[C@@H](CCC(=O)N[C@@H](CCC(=O)N[C@@H](CCC(=O)N[C@@H](CCC(=O)N[C@@H](CCC(=O)O)C(=O)O)C(=O)O)C(=O)O)C(=O)O)C(=O)O)C(=O)O)C(=O)O)C(=O)O)C(=O)O)cc2)c1 result="> 100 µM"

###

System: DU145
Test: Cell proliferation assay (Alamar Blue)
Assay type: cell-based
Conditions: Homo sapiens, DU-145, 144 h; DU145 tumor cell line; 6 days
Protocol: 1. Instruments and Materials • Thermo 311 CO2 incubator; Haier biosafety cabinet; Molecular Devices microplate reader; Xiangyi brand L530 desktop low speed centrifuge; Olympus IX51 inverted fluorescence microscope, DMEM, RPMI 1640, MEM, DMEM/F12 1:1 medium, Fetal bovine serum, 0.25% trypsin solution, phosphate buffer (Thermo Fisher Shanghai Co., Ltd.); sigma dimethyl sulfoxide (DMSO), resazurin; 54 commercial tumor cell lines (including 26 liver cancer cell lines). […]
Assay endpoint: IC50 (µM)

compound="Cc1ccc(F)c(NC(=O)Nc2ccc(-c3cccc4c3c(N)nn4C(=O)C[C@H](N)C(=O)N[C@@H](CCC(=O)N[C@@H](CCC(=O)N[C@@H](CCC(=O)N[C@@H](CCC(=O)O)C(=O)O)C(=O)O)C(=O)O)C(=O)O)cc2)c1 [Compound 2]" assay_endpoint=IC50 quantitative_readout=4.89
compound="Cc1ccc(F)c(NC(=O)Nc2ccc(-c3cccc4c3c(N)nn4C(=O)CCCCCNC(=O)C[C@H](N)C(=O)N[C@@H](CCC(=O)O)C(=O)O)cc2)c1 [Compound 4]" assay_endpoint=IC50 quantitative_readout=38
compound="Cc1ccc(F)c(NC(=O)Nc2ccc(-c3cccc4c3c(N)nn4C(=O)CCCCCNC(=O)C[C@H](N)C(=O)N[C@@H](CCC(=O)N[C@@H](CCC(=O)N[C@@H](CCC(=O)N[C@@H](CCC(=O)N[C@@H](CCC(=O)N[C@@H](CCC(=O)N[C@@H](CCC(=O)N[C@@H](CCC(=O)N[C@@H](CCC(=O)O)C(=O)O)C(=O)O)C(=O)O)C(=O)O)C(=O)O)C(=O)O)C(=O)O)C(=O)O)C(=O)O)cc2)c1 [Compound 6]" assay_endpoint=IC50 quantitative_readout=63.3
compound="Cc1ccc(F)c(NC(=O)Nc2ccc(-c3cccc4c3c(N)nn4C(=O)C[C@H](N)C(=O)N[C@@H](CCC(=O)N[C@@H](CCC(=O)N[C@@H](CCC(=O)N[C@@H](CCC(=O)N[C@@H](CCC(=O)N[C@@H](CCC(=O)N[C@@H](CCC(=O)N[C@@H](CCC(=O)N[C@@H](CCC(=O)O)C(=O)O)C(=O)O)C(=O)O)C(=O)O)C(=O)O)C(=O)O)C(=O)O)C(=O)O)C(=O)O)cc2)c1 [Compound 3]" assay_endpoint=IC50 quantitative_readout=7.38

###

test system: SNU761; assay: Cell proliferation assay (Alamar Blue); format: cell-based; settings: 144 h; SNU761 liver cancer cell line; 6 days
We label by threshold. Values of IC50 strictly beneath 80 µM are Satisfied. Values of 80 µM and up are Not satisfied.

compound="Cc1ccc(F)c(NC(=O)Nc2ccc(-c3cccc4c3c(N)nn4C(=O)C[C@H](N)C(=O)N[C@@H](CCC(=O)O)C(=O)O)cc2)c1 [Compound 1]" category_label=Satisfied
compound="Cc1ccc(F)c(NC(=O)Nc2ccc(-c3cccc4c3c(N)nn4C(=O)CCCCCNC(=O)C[C@H](N)C(=O)N[C@@H](CCC(=O)O)C(=O)O)cc2)c1 [Compound 4]" category_label="Not satisfied"
compound="Cc1ccc(F)c(NC(=O)Nc2ccc(-c3cccc4c3c(N)nn4C(=O)C[C@H](N)C(=O)O)cc2)c1 [Compound 10]" category_label=Satisfied
compound="Cc1ccc(F)c(NC(=O)Nc2ccc(-c3cccc4[nH]nc(N)c34)cc2)c1 [Linifanib, reference compound]" category_label=Satisfied
compound="Cc1ccc(F)c(NC(=O)Nc2ccc(-c3cccc4c3c(N)nn4C(=O)CCCCCNC(=O)C[C@H](N)C(=O)O)cc2)c1 [Compound 11]" category_label=Satisfied
compound="Cc1ccc(F)c(NC(=O)Nc2ccc(-c3cccc4c3c(N)nn4C(=O)C[C@H](N)C(=O)N[C@@H](CCC(=O)N[C@@H](CCC(=O)N[C@@H](CCC(=O)N[C@@H](CCC(=O)O)C(=O)O)C(=O)O)C(=O)O)C(=O)O)cc2)c1 [Compound 2]" category_label=Satisfied
compound="Cc1ccc(F)c(NC(=O)Nc2ccc(-c3cccc4c3c(N)nn4C(=O)CCCCCNC(=O)C[C@H](N)C(=O)N[C@@H](CCC(=O)N[C@@H](CCC(=O)N[C@@H](CCC(=O)N[C@@H](CCC(=O)N[C@@H](CCC(=O)N[C@@H](CCC(=O)N[C@@H](CCC(=O)N[C@@H](CCC(=O)N[C@@H](CCC(=O)O)C(=O)O)C(=O)O)C(=O)O)C(=O)O)C(=O)O)C(=O)O)C(=O)O)C(=O)O)C(=O)O)cc2)c1 [Compound 6]" category_label="Not satisfied"
compound="Cc1ccc(F)c(NC(=O)Nc2ccc(-c3cccc4c3c(N)nn4C(=O)CCCCCCCCCCCNC(=O)C[C@H](N)C(=O)N[C@@H](CCC(=O)O)C(=O)O)cc2)c1 [Compound 7]" category_label="Not satisfied"
